- Tested on: adjuvant-induced arthritis in female Lewis rats
- conditions_used: injected paw; same doses p.o. q.d.; mean ± SD
// reported Change in Primary Foot Volume Day 14-0 per item
// return numeric value only (unit: µL, not printed)

# input compound: CCCc1cc(Oc2ccccc2)ccc1OCCc1cc2cc(CC(=O)O)ccc2[nH]1 [Compound 2] ; wanted: its Change in Primary Foot Volume Day 14-0
1875

Lookup Cc1cccc(Nc2cc(Cl)nc(SCC(=O)O)n2)c1C [Compound 4, WY-14643, reference compound]
2585

Lookup O=C(O)c1c(Sc2ccccc2)c2cc(Cl)ccc2n1Cc1ccc(Cl)cc1 [Compound 3]
2606

Lookup CC(C)OC(=O)C(C)(C)Oc1ccc(C(=O)c2ccc(Cl)cc2)cc1 [Compound 5, Fenofibrate, reference compound]
1945

* * *

// reported change in body weight Day 14-0 per item
- System: adjuvant-induced arthritis in female Lewis rats
- conditions_used: p.o. q.d.; Compounds 1, 2, 4, 6 30 mg/kg/day, Compound 3 50, Compound 5 100, indomethacin 2 mg/kg/day; mean ± SD
// return numeric value only (unit: grams, not printed)

The cases that follow already have their change in body weight Day 14-0 on record.
>  <compound>
O=C(O)c1c(Sc2ccccc2)c2cc(Cl)ccc2n1Cc1ccc(Cl)cc1

>  <unit_string>
grams

>  <endpoint_result>
−6.6

$$$$
>  <compound>
Cc1cccc(Nc2cc(Cl)nc(SCC(=O)O)n2)c1C [Compound 4, WY-14643, reference compound]

>  <unit_string>
grams

>  <endpoint_result>
−15.2

$$$$

Switching to the query record.
# input compound: CC(C)OC(=O)C(C)(C)Oc1ccc(C(=O)c2ccc(Cl)cc2)cc1 [Compound 5, Fenofibrate, reference compound] ; wanted: its change in body weight Day 14-0
−7.6

* * *

- test_target: recombinant human PPARδ (GST-PPARδ) (Homo sapiens)
- Construct: The full length human cDNAs for PPARδ and PPARα were subcloned into the pGEX-KT expression vector
- Sequence (Q03181 whole entry): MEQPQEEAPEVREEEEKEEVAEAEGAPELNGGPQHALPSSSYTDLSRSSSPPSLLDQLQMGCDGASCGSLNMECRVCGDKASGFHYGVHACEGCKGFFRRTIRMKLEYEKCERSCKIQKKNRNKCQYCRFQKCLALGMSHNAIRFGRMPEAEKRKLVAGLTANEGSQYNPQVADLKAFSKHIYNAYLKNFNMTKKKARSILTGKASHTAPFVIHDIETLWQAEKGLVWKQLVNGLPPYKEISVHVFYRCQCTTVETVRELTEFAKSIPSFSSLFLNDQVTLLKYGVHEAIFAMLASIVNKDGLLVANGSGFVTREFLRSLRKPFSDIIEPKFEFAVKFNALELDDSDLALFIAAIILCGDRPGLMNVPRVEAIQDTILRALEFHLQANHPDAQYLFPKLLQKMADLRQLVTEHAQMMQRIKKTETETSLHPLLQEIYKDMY
- test_protocol: Scintillation Proximity Assay, displacement of [3H2]Compound B from PPARδ
- conditions_used: SPA, radioligand
metric: Kd

# input compound: CCCc1c(OCCCSc2ccc(CC(=O)O)cc2Cl)ccc2c(C(F)(F)F)noc12 [Compound B, reference compound] ; wanted: its Kd
~1 nM

* * *

- test_target: recombinant human PPARγ (GST-PPARγ) (Homo sapiens)
- Construct: The full length human cDNA for PPARγ 2 was subcloned into the pGEX-2 T expression vector; made in house; host or cells: E. coli
- Sequence (P37231 1-505): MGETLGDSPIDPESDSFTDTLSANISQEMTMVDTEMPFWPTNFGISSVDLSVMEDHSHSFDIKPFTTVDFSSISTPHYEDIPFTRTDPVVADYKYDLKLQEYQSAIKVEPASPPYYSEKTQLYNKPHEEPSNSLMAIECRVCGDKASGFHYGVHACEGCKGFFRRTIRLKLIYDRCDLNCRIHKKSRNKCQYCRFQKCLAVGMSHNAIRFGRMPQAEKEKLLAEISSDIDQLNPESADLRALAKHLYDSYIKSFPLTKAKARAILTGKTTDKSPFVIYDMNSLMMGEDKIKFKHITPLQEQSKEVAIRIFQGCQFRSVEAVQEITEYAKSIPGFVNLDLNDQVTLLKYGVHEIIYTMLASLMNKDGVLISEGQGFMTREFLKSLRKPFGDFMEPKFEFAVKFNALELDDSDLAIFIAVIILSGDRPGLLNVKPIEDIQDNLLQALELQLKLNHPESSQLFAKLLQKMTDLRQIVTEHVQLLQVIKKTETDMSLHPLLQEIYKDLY
- test_protocol: Scintillation Proximity Assay, displacement of [3H2]Compound A from PPARγ
- Type: binding
- conditions_used: human PPARγ binding; read-out: IC50 (μM: SPA or BND) Gamma
metric: IC50 (µM)
// return numeric value only (unit: µM, not printed)

# input compound: CCCc1cc(Oc2ccccc2)ccc1OCCc1cc2cc(CC(=O)O)ccc2[nH]1 ; wanted: its IC50
0.097
